Biological target: T1, p2S (p2 peptide biotinylated through its free cysteine) (human, also: biotinylated (maleimide PEO2-biotin) on one of the two Cys, which one not given here)
T1 construct: The peptide has two cysteines; also called b-p2S
T1 peptide: RPRYACCPGWKRT
Assay: SPR (BIAcore-2000), IgG injected over immobilized p2S peptide
Where no end group is shown, it is not given here.
measured-endpoint: kon (M⁻¹ s⁻¹)
Give the quantity in M⁻¹ s⁻¹, number only.

The cases that follow already have their kon on record.
{"binder": "4F11.v14 IgG (antibody, name in Kabat numbering, V domains shown, IgG; Kabat numbering) VH: EIQLVESGGGLVQPGGSLRLSCAASGHTFTTYGMSWVRQAPGKGLEWMGWINTHSGVPTYADDFKGRFTFSLDTSASTAYLQMNSLRAEDTAVYFCARLGSSAVDYWGQGTLVTVSS VL: DIQLTQSPSSLSASVGDRVTITCKASQSVDYDGDSYMSWYQQKPGKAPKLLIYGASNLESGVPSRFSGSGSGTDFTLTISSLQPEDFATYYCQQNNEDPYTFGQGTKVEIKR", "measured-endpoint": "kon", "unit": "M⁻¹ s⁻¹", "observed-measurement": 141000}
{"binder": "4F11.v16 IgG (antibody, name in Kabat numbering, V domains shown, IgG; Kabat numbering) VH: EIQLVESGGGLVQPGGSLRLSCAASGHTFTTYGMSWVRQAPGKGLEWMGWINTHSGVPTYADDFKGRFTFSLDTSASTAYLQMNSLRAEDTAVYFCARLGSSAVDYWGQGTLVTVSS VL: DIQMTQSPSSLSASVGDRVTITCKASQSVDYDGDSYMSWYQQKPGKAPKLLIYGASNLESGVPSRFSGSGSGTDFTLTISSLQPEDFATYYCQQNNEDPYTFGQGTKVEIKR", "measured-endpoint": "kon", "unit": "M⁻¹ s⁻¹", "observed-measurement": 98100}

Please look at the following binder next.
Field request: kon | item: 4F11.v13 IgG (antibody, name in Kabat numbering, V domains shown, IgG; Kabat numbering) VH: EVQLVESGGGLVQPGGSLRLSCAASGHTFTTYGMSWVRQAPGKGLEWVGWINTHSGVPTYADDFKGRFTISLDNSKNTAYLQMNSLRAEDTAVYYCARLGSSAVDYWGQGTLVTVSS VL: DIQLTQSPSSLSASVGDRVTITCKASQSVDYDGDSYMSWYQQKPGKAPKLLIYGASNLESGVPSRFSGSGSGTDFTLTISSLQPEDFATYYCQQNNEDPYTFGQGTKVEIKR
149000

The measured values listed here are drawn from patent US20140051120A1.
